System: MS2 coat protein
RUN DESCRIPTION: apparent Kd, MS2 coat protein; higher = weaker binding; RNA-MaP array; tryptophan 2.4 mM where present
CONDITION LABEL: designed as: ON switch for tryptophan; no ligand
Parameter: apparent Kd. Scope: all listed entries.
Respond with the bare value in nM.

UUUGGCGGCGAUCUGGGUUUACCAGAUCGGCGAGGACCGGUACGGCCGCCACUCGUGUUUCUUUGACAUGAGGAUCACCCAUGUA    62.5
GCAUCCUAGUCGGCCGCCACUGCAAUUGUAGUACUGCUACAUGAACAUGAGGAUCACCCAUGUAGCAGGACCGGGACUAGGAUGC    55
ACAUGAGGAUCACCCAUGUACAUCACCCGACGAGGACCGGUACGGCCGCCACUCGGGUAUAUAUAUACAUCGGGUGGUUUUGCAU    17.6
CACAAUUUGUCGGCCGCCACUAAGGUAACUUUUCUCACAUGAGGAUCACCCAUGUGCCCGAAACUUAGGACCGGGAUAAUGGGUG    82.4
AUGCAGAACACGGCCGCCACUCAUUGUAGACAUGAGGAUCACCCAUGUAAUAGGGAUAUUUUAUUGAGGACCGGGUGUAAUGCAA    51.1

Task: Requested field: apparent Kd. Item: CGCCACUCGAGUGAUCCUCACGAGUGGCUACGAGGACCGGUACGGCCGCCACUCGAAUUAACAUGAGGAUCACCCAUGUACUCCA
Output: 93.6

Task: Requested field: apparent Kd. Item: CUAAUUAUAUCGGCCGCCACUUACUCAUGAGGUAACAACAUGAGGAUCACCCAUGUUUGAGGAUCAAGGACCGGGAUAUAAUUAG
Output: 28.9

---

Test system: MS2 coat protein
RUN DESCRIPTION: apparent Kd, MS2 coat protein; higher = weaker binding; RNA-MaP array; FMN 200 µM where present
CONDITION LABEL: ligand present: flavin mononucleotide; designed as: OFF switch for flavin mononucleotide
apparent Kd of 100 nM or higher: MET. Under 100 nM: NOT MET.

Task: Exam item: decide whether the reported apparent Kd for GUCAGCUCGUGAGGAUAUACAUGUGCUGGAGACAGCACUAUUAAGUUCACAUGAGGAUCACCCAUGUAGAAGGCACGAGCUGAU is at least 100 nM.
Output: NOT MET

Task: Exam item: decide whether the reported apparent Kd for GAUCUCGUAGUGAGGAUAUUGCUCAUAGACAAUAGUAAGAAGGCACAUGAGGAUCACCCAUGUCGAGUGAGGUU is at least 100 nM.
Output: MET

Task: Exam item: decide whether the reported apparent Kd for UAGCUUGACGCAGGAUAUCCAAGGCUGAAAUGAGGAGAAGGGCGCCAAACAUGAGGAUCACCCAUGUAUUAUGCAGGGUCCUCG is at least 100 nM.
Output: MET

---

Tested on: MS2 coat protein
RUN DESCRIPTION: apparent Kd, MS2 coat protein; higher = weaker binding; RNA-MaP array; FMN 200 µM where present
CONDITION LABEL: ligand present: flavin mononucleotide; designed as: OFF switch for flavin mononucleotide
REPORTED PROPERTY: apparent Kd (nM)
Respond with the bare value in nM.

Example results:
CCUCUACAUGAGGAUCACCCAUGUGAGGAUAUCUCGGAGCAGCCACUUAAGGCGCUCCAGAGAAGGCACGUGUA    28.8
CAGAGGAUGUAAGGAUAUCGUCAGGAAUACUGACGAGAAGGUACAUGAGGAUCACCCAUGUAACUCUAAUAAUAAUAACCUCUG    16.4
GUAGAGUAAGGAUAUGGAGAAUAGGAUAGAAUGGUUAGAAUCUAGAAGGUACAUGAGGAUCACCCAUGUAAUGU    20.8

Task: Requested field: apparent Kd. Item: UCGCUGCGAGGAUAUACAUGAGGAUCACCCAUGUACGGGUCCGGGUUUGAGUUGAUGAGUAGAAGGCGCAGUGA
Output: 86.1

Task: Requested field: apparent Kd. Item: UCGCUUGAAGGAUAUACGAUUCGUUGUGUUCGUGUCACCUGACAUGAGGAUCACCCAUGUAGAAGGUCACGCAG
Output: 24.6

Task: Requested field: apparent Kd. Item: CACGCAUGUGGAGGAUAUGCAGUUAACAUAAGCGCAGAAGGCCACAUGAGGAUCACCCAUGUCCAGCAUUAGCUGAUGUUGAUC
Output: 195

Task: Requested field: apparent Kd. Item: ACGUGUUAUACAGGAUAUGUAUAGGUAUAAUCAUACAGUUAUUAAUUAAUGACAGAAGGGUAAACAUGAGGAUCACCCAUGUCA
Output: 248

Task: Requested field: apparent Kd. Item: UUAUUAUAUGUAGGAUAUGCAUAUUAUUAUUAUGCAGAAGGACAUGAGGAUCACCCAUGUAUAUUAUUGUUAUAUAUUAUAUAU
Output: 39.3
